Provenance of the data: patent US20250353833A1

Give log10 of IC50 for every item shown.
# Study system: DPP9 (Homo sapiens (Human), UniProt Q86TI2)
# Sequence (Q86TI2 whole entry): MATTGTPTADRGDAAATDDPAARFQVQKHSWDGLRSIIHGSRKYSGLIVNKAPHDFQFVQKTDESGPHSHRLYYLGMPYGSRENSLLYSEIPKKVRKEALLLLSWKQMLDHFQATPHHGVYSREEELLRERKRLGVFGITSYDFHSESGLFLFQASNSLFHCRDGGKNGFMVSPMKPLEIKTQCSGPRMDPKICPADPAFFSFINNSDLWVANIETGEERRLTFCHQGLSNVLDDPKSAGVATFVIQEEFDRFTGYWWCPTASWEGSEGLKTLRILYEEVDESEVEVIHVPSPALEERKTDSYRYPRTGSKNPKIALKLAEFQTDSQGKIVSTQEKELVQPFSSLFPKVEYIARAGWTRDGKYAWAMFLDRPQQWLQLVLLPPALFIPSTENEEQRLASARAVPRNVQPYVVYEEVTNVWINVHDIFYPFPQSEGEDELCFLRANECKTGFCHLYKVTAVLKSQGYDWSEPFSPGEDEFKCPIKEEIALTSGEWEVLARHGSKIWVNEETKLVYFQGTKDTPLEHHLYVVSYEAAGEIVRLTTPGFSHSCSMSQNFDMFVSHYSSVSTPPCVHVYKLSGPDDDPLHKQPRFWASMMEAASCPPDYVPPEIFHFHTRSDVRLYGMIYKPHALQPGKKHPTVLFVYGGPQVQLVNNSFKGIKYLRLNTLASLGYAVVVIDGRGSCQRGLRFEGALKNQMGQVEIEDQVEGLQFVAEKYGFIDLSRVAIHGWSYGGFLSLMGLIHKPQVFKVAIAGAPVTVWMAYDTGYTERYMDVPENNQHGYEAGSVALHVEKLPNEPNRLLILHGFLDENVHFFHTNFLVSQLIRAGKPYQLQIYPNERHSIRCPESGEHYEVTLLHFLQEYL
# Method: DPP9 enzyme inhibition, IC50 measurement (Ala-Pro-pNA release)
# Assay type: biochemical
# Experimental context: Table 3; mean ± SD (n = 3); read-out: DPP9 IC50 ± SD
Scale type: logarithmic (base 10). Underlying IC50 unit: nM.

Sure, the documented log10 of IC50 for O=C(NC12CC3CC(CC(C3)C1)C2)NC12CC3CC(CC(NCC(=O)N4Cc5ccccc5C4)(C3)C1)C2 [Compound 41] is 1.52

So, O=C(NC(c1ccccc1)c1ccccc1)OC12CC3CC(CC(NCC(=O)N4Cc5ccccc5C4)(C3)C1)C2 [Compound 33] ? Its log10 of IC50 was 1.16

The recorded log10 of IC50 for entry CC(C)(C)OC(=O)NC12CC3CC(CC(NCC(=O)N4Cc5ccc(F)cc5C4)(C3)C1)C2 [Compound 46] equals 1.16

The reported value for O=C(CNC12CC3CC(C1)CC(NCc1ccc(-c4ccccc4)cc1)(C3)C2)N1Cc2ccccc2C1 [Compound 27] in terms of log10 of IC50 is 1.97

For this compound ( CC12CC3CC(C)(C1)CC(NCC(=O)N1Cc4ccc(F)cc4C1)(C3)C2 [Compound 63] ), measured log10 of IC50 is 2.65

Reported log10 of IC50 for O=C(NC(c1ccc(F)cc1)c1ccc(F)cc1)OC12CC3CC(CC(NCC(=O)N4Cc5ccccc5C4)(C3)C1)C2 [Compound 32] was 1.68

Field log10 of IC50 (entry O=C(CCCCC1SCC2NC(=O)NC21)NCCOCCOCCOCCNC(=O)NC12CC3CC(CC(NCC(=O)N4Cc5ccc(F)cc5C4)(C3)C1)C2 (centres unmarked) [Compound 75] ) reads 1.63

For reference, reported log10 of IC50 for O=C(NCc1ccncc1)OC12CC3CC(CC(NCC(=O)N4Cc5ccccc5C4)(C3)C1)C2 [Compound 37] stands at 1.96

Just so you know, measured log10 of IC50 for O=C1CCC(N2C(=O)c3cccc(NCCOCCOCCOCCNC(=O)NC45CC6CC(CC(NCC(=O)N7Cc8ccc(F)cc8C7)(C6)C4)C5)c3C2=O)C(=O)N1 (centres unmarked) [Compound 78] came out at 1.08

Looking up O=C(NCCCC[C@H](NC(=O)OC12CC3CC(CC(NCC(=O)N4Cc5ccccc5C4)(C3)C1)C2)C(=O)O)OCc1ccccc1 [Compound 34] , I found its log10 of IC50 recorded as 0.24

# log10 of IC50 of O=C(O)CNC(=O)OC12CC3CC(CC(NCC(=O)N4Cc5ccc(F)cc5C4)(C3)C1)C2 [Compound 53] = 1.60

compound Cl.O=C(NCc1ccccc1)NC12CC3CC(CC(NCC(=O)N4Cc5ccccc5C4)(C3)C1)C2 [Compound 42, hydrochloride] , log10 of IC50 observed: 1.58

Item: O=C1CCC(N2C(=O)c3cccc(NCCOCCOC(=O)NC45CC6CC(CC(NCC(=O)N7Cc8ccc(F)cc8C7)(C6)C4)C5)c3C2=O)C(=O)N1 (centres unmarked) [Compound 76] | log10 of IC50: 0.15

So for COC(=O)[C@H](CCSC)NC(=O)OC12CC3CC(CC(NCC(=O)N4Cc5ccc(F)cc5C4)(C3)C1)C2 [Compound 61] , the logged log10 of IC50 turned out to be 1.66
